# testSystem: T1, biotinylated human Ang2 protein (human, UniProt O15123 19-496, limits assumed, biotinylated (sites not given))
# T1 construct: also called hAng2
# T1 sequence (looked up): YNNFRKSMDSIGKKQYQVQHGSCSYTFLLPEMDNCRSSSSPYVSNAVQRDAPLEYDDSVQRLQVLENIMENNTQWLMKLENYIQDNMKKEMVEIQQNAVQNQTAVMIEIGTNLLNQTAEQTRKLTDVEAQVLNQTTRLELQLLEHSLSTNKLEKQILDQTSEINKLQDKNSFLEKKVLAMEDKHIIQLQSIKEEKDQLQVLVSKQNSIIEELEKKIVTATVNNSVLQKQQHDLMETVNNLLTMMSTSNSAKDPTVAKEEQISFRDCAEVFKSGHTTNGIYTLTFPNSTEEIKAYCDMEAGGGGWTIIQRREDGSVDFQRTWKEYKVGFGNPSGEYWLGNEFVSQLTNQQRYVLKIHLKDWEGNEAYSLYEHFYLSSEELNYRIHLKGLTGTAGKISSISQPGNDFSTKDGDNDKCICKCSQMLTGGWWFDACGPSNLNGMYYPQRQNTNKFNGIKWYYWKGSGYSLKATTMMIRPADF
# testProtocol: competition ELISA: antibody preincubated with biotinylated hAng2, binding to coated integrin α3/β1
metricName: IC50 (nM)
Kindly answer with a numeric value in nM, unit omitted.

Some entries whose results are on file:
binder="No. 4 anti-Ang2 antibody (IgG) (antibody, V domains shown, IgG form: VH cloned into Invivogen pfusess-hchg1, VL into Invivogen pfuse2ss-hclk; also called 2D8) VH: QVQLVESGAEVKRPGESLRISCKTSGYSFTSYWIHWVRQMPGKELEWMGSIYPGNSDTRYSPSFQGHVTISADSSSSTAYLQWSSLKASDTAMYYCTTEGLMNGLHFDMWGQGTMVTVSS VL: DIVMTQTPLSLPVTPGEPASISCRSSQSLLHSLGDNYLDWYLQKPGQSPQLLIYLGSKRAAGVPDRFSGSGSGTDFTLKISRVEAEDVGVYYCMQSLQTPPYTFGQGTKLEIKR" measurement=2.42
binder="No. 3 anti-Ang2 antibody (IgG) (antibody, V domains shown, IgG form: VH cloned into Invivogen pfusess-hchg1 (heavy chain constant region), VL into Invivogen pfuse2ss-hclk (light chain constant region); Expressed in Expi293F, purified on Protein A; also called 1D10) VH: QMQLVQSGGGLVQPGRSLKLSCAASGFSFDDYAMHWVRQAPGKGLEWVATIKDDGSQTYYVDSVKGRFTISRDNAKSSLFLQMNSLRAEDTAVYYCTTEGLMNGLHFDMWGQGTMVTVSS VL: LVLTQPPSVSGAPGQGVTISCTGSSSNIGAGYDVHWYQQFPGTAPKLLISGNNNRPSGLPDRFSGSKSGTSASLAITGLQAEDEADYYCQSYDSRLGVVFGGGTKLTVLG" measurement=2.5
binder="No. 46 anti-Ang2 antibody (IgG) (antibody, V domains shown, IgG form: VH cloned into Invivogen pfusess-hchg1, VL into Invivogen pfuse2ss-hclk; also called 3C6) VH: QVQLVESGGGLVQPGRSLRLSCAASGFTFDDCAMHWVRQAPGKGLEWVSGISGNSKNVAYADSVKGRFSISRDDAKNSLYLQMNSLRAEDTAVYYCARDPAYSQFDYWGQGTLITVSS VL: QSALTQPPSLSATPGQRVTISCSGSSSNVGGYPVNWYQQVPGAAPKLLMYTDYKRPSGVPDRFFGSKSGTSASLAISGLQSEDEADYYCATWDDNLNGYVFGTGTKVTVLG" measurement=4.39
binder="No. 8 anti-Ang2 antibody (IgG) (antibody, V domains shown, IgG form: VH cloned into Invivogen pfusess-hchg1, VL into Invivogen pfuse2ss-hclk; also called 3A10) VH: QVQLVESGGGLVKPGGSLRLSCAASGFTFSSYSMNWVRQAPGKGLEWVSSISASDGATYYADSVRGRFTISRDNSRSTLYLQMNSLRAEDTAVYYCAKILAGYSGPMGGMDVWGQGTTVTVSS VL: DIQMTQSPSSLSASVGDRVTITCRASRDISNYLAWYQQKPGKAPKSLIYGASNLQSGVSSQFSGSGSGTDFTLTINSLQPEDSATYYCQQYYSYPLTFGGGTKVDIKR" measurement=4.68

Now let's try a different one.
QUERY: Item No. 41 anti-Ang2 antibody (IgG) (antibody, V domains shown, IgG form: VH cloned into Invivogen pfusess-hchg1, VL into Invivogen pfuse2ss-hclk; also called 2B2) VH: QVQLVESGGGLVQPGGSLRLSCEASGFAFGRYEMNWVRQAPGKGLEWIAYIDTGGGAKVYADSVKGRFTISRDDSKNSLYLQMNSLRAEDTAVYYCTTEGLMNGLHFDMWGQGTMITVSS VL: DIQMTQSPSTLSASVGDRVAITCRASQAISTWLAWYQQKPGKAPKLLIYTASTLESGVPSRFSGSGSGTDFTLTINSLQPDDFATYYCQQLNSYPYTFGGGTKVEIKR has what recorded IC50?
RESULT: 2.43
